Listed next: entries and their corresponding IC50.
# EXPERIMENTAL_SYSTEM: HIV-1 RT (Human immunodeficiency virus type 1 group M subtype B)
# ASSAY_PROTOCOL: HIV Reverse Transcriptase Assay: Inhibitor IC50 determination
# Type: biochemical
# CONDITION_DESCRIPTION: TABLE II; purified recombinant enzyme, poly(rA)/oligo(dT)16 template-primer; read-out: HIV-RT IC50 RT
MEASURED_ATTRIBUTE: IC50 (µM)

COMPOUND	EXPERIMENTAL_VALUE
Cc1nc(Cc2ccc(Cl)c(Oc3cc(Br)cc(Br)c3)c2F)n[nH]c1=O [II-4]	0.137
Cc1nc(Cc2ccc(Cl)c(Oc3cccc(C#N)c3)c2)n[nH]c1=O [II-2]	0.206
Cc1nc(Cc2ccc(Cl)c(Oc3cccc(Br)c3)c2)n[nH]c1=O [II-1]	0.331
Cc1nc(Cc2ccc(Cl)c(Oc3cc(Br)cc(C#N)c3)c2F)n[nH]c1=O [II-6]	0.0325
Cc1nc(Cc2ccc(Cl)c(Oc3cc(C#N)cc(C#N)c3)c2F)n[nH]c1=O [II-5]	0.432
O=c1[nH]nc(Cc2ccc(Cl)c(Oc3cccc(Br)c3)c2)nc1-c1ccccc1 [II-3]	0.346

====

# EXPERIMENTAL_SYSTEM: UniProtKB P03366
# ASSAY_PROTOCOL: HIV Reverse Transcriptase Assay: Inhibitor IC50 determination
# Format: biochemical
# CONDITION_DESCRIPTION: TABLE I; purified recombinant enzyme, poly(rA)/oligo(dT)16 template-primer; read-out: HIV-RT IC50 RT
MEASURED_ATTRIBUTE: log10(IC50) (log10 of the value in nM)

MOLECULE	log10(IC50)
C[C@H]1NC(Cc2ccc(Cl)c(Oc3cc(C#N)cc(C#N)c3)c2F)=NNC1=O	1.50
CC1(C)NC(Cc2ccc(Cl)c(Oc3cc(Cl)cc(C#N)c3)c2F)=NNC1=O	3.85
CCC1OC(Cc2ccc(Cl)c(Oc3cccc(Br)c3)c2)=NNC1=O (centres unmarked)	2.33
CC[C@H]1NC(Cc2ccc(Cl)c(Oc3cc(Cl)cc(C#N)c3)c2F)=NNC1=O	1.11
CC1OC(Cc2ccc(Cl)c(Oc3cc(Br)cc(Br)c3)c2F)=NNC1=O (centres unmarked)	1.39
CC1(C)OC(Cc2ccc(Cl)c(Oc3cccc(C#N)c3)c2)=NNC1=O	3.98
Cc1ccc(CC2=NNC(=O)[C@@H](C)N2)c(F)c1Oc1cc(C#N)cc(C(F)F)c1	1.26
C[C@H]1CC(Cc2ccc(Cl)c(Oc3cccc(C#N)c3)c2)=NNC1=O	1.67

====

Listed next: entries and their corresponding pIC50.
# EXPERIMENTAL_SYSTEM: HIV-1 RT (Human immunodeficiency virus type 1 group M subtype B)
# ASSAY_PROTOCOL: HIV Reverse Transcriptase Assay: Inhibitor IC50 determination
# Assay type: biochemical
# CONDITION_DESCRIPTION: TABLE 3; read-out: RT inhibition IC50
pIC50: −log10 of the molar value.

MOLECULE	pIC50
C[C@H]1NC(Cc2ccc(Cl)c(Oc3cc(C#N)cc(C#N)c3)c2F)=NNC1=O [Compound I-5]	7.49
C[C@H]1NC(Cc2ccc(Cl)c(Oc3cc(Cl)cc(C#N)c3)c2F)=NNC1=O [Compound I-15]	7.96

====

# EXPERIMENTAL_SYSTEM: HIV-1 RT (Human immunodeficiency virus type 1 group M subtype B)
# ASSAY_PROTOCOL: HIV Reverse Transcriptase Assay: Inhibitor IC50 determination
# Type: biochemical
# CONDITION_DESCRIPTION: TABLE I; purified recombinant enzyme, poly(rA)/oligo(dT)16 template-primer; read-out: HIV-RT IC50 RT
pIC50: −log10 of the molar value.
MEASURED_ATTRIBUTE: pIC50

COMPOUND	EXPERIMENTAL_VALUE
CC1CC(Cc2ccc(Cl)c(Oc3cc(Cl)cc(C#N)c3)c2F)=NNC1=O (stereo in doubt)	7.75
N#Cc1cc(Cl)cc(Oc2c(Cl)ccc(CC3=NNC(=O)C(C(F)(F)F)N3)c2F)c1 (centres unmarked)	7.57
N#Cc1cc(Cl)cc(Oc2c(Cl)ccc(CC3=NNC(=O)[C@@H](CO)N3)c2F)c1	6.38
C[C@@H]1NC(Cc2ccc(Cl)c(Oc3cc(Br)cc(Br)c3)c2F)=NNC1=O	6.78
CC1OC(Cc2ccc(Cl)c(Oc3cc(Cl)cc(C#N)c3)c2F)=NNC1=O (centres unmarked)	7.87
CC1OC(Cc2ccc(Cl)c(Oc3cc(C#N)cc(C#N)c3)c2F)=NNC1=O (centres unmarked)	7.39
CCC1OC(Cc2ccc(Cl)c(Oc3cccc(C#N)c3)c2)=NNC1=O (centres unmarked)	6.89
C[C@H]1NC(Cc2ccc(Cl)c(Oc3cc(Br)cc(Br)c3)c2F)=NNC1=O	7.97

====

Listed next: entries and their corresponding IC50.
# EXPERIMENTAL_SYSTEM: HIV-1 RT (Human immunodeficiency virus type 1 group M subtype B, UniProt P03366)
# ASSAY_PROTOCOL: HIV Reverse Transcriptase Assay: Inhibitor IC50 determination
# Assay type: biochemical
# CONDITION_DESCRIPTION: TABLE I; purified recombinant enzyme, poly(rA)/oligo(dT)16 template-primer; read-out: HIV-RT IC50 RT
MEASURED_ATTRIBUTE: IC50 (nM)

MOLECULE	EXPERIMENTAL_VALUE
C[C@H]1NC(Cc2ccc(Br)c(Oc3cc(Cl)cc(C#N)c3)c2F)=NNC1=O [Compound I-26]	6.6
O=C1NN=C(Cc2ccc(Cl)c(Oc3cc(Br)cc(Br)c3)c2F)NC12CC2 [Compound I-10]	66
C[C@H]1NC(Cc2ccc(Br)c(Oc3cc(C#N)cc(C(F)F)c3)c2F)=NNC1=O [Compound I-25]	11.7
C[C@H]1NC(Cc2ccc(Cl)c(Oc3cc(Cl)cc(C#N)c3)c2F)=NNC1=O [Compound I-15]	11.1
CC1OC(Cc2ccc(Cl)c(Oc3cccc(Br)c3)c2)=NNC1=O (centres unmarked) [Compound I-4]	51.5
CC1CC(Cc2ccc(Cl)c(Oc3cc(Cl)cc(Br)c3)c2F)=NNC1=O (stereo in doubt) [Compound I-23]	14.3
N#Cc1cc(Cl)cc(Oc2c(Cl)ccc(CC3=NNC(=O)CN3)c2F)c1 [Compound I-28]	143
C[C@H]1NC(Cc2ccc(Cl)c(Oc3cc(C#N)cc(C(F)F)c3)c2F)=NNC1=O [Compound I-16]	15.3

====

MEASURED_ATTRIBUTE: melting point

MOLECULE	MEASURED_ATTRIBUTE	EXPERIMENTAL_VALUE
C[C@H]1NC(Cc2ccc(Br)c(Oc3cc(Cl)cc(C#N)c3)c2F)=NNC1=O	melting point	178.2 to 179 °C
C[C@H]1NC(Cc2ccc(Cl)c(Oc3cc(Br)cc(Br)c3)c2F)=NNC1=O	melting point	75.2 to 79.1 °C
CC1OC(Cc2ccc(Cl)c(Oc3cc(Br)cc(Br)c3)c2F)=NNC1=O (stereo not drawn)	melting point	174.2 to 176.1 °C
C[C@@H]1NC(Cc2ccc(Cl)c(Oc3cc(Br)cc(Br)c3)c2F)=NNC1=O	melting point	88 to 91.5 °C
N#Cc1cc(Cl)cc(Oc2c(Cl)ccc(CC3=NNC(=O)CN3)c2F)c1	melting point	177.6 to 178 °C
CC1OC(Cc2ccc(Cl)c(Oc3cc(C#N)cc(C#N)c3)c2F)=NNC1=O (stereo not drawn)	melting point	60.9 to 67.7 °C
Cc1nc(Cc2ccc(Cl)c(Oc3cccc(C#N)c3)c2)n[nH]c1=O	melting point	145.3 to 145.8 °C
Cc1nc(Cc2ccc(Cl)c(Oc3cc(C#N)cc(C#N)c3)c2F)n[nH]c1=O	melting point	194.7 to 197.4 °C
CC1CC(Cc2ccc(Cl)c(Oc3cc(Cl)cc(C#N)c3)c2F)=NNC1=O (stereo in doubt)	melting point	156.5 to 157.2 °C
C[C@H]1NC(Cc2ccc(Br)c(Oc3cc(C#N)cc(C(F)F)c3)c2F)=NNC1=O	melting point	231.5 to 233 °C
O=c1[nH]nc(Cc2ccc(Cl)c(Oc3cccc(Br)c3)c2)nc1-c1ccccc1	melting point	59.8 to 63.9 °C
CC1CC(Cc2ccc(Cl)c(Oc3cc(Cl)cc(Br)c3)c2F)=NNC1=O (stereo in doubt)	melting point	148.2 to 151 °C
N#Cc1cc(Cl)cc(Oc2c(Cl)ccc(CC3=NNC(=O)[C@@H](CO)N3)c2F)c1	melting point	112.5 to 114 °C
C[C@H]1NC(Cc2ccc(Cl)c(Oc3cc(Cl)cc(C#N)c3)c2F)=NNC1=O	melting point	158.6 to 159.9 °C
Cc1nc(Cc2ccc(Cl)c(Oc3cc(Br)cc(Br)c3)c2F)n[nH]c1=O	melting point	180.9 to 183.3 °C
CC1(C)OC(Cc2ccc(Cl)c(Oc3cccc(C#N)c3)c2)=NNC1=O	melting point	94.1 to 95.3 °C
C[C@H]1NC(Cc2ccc(Cl)c(Oc3cc(C#N)cc(C#N)c3)c2F)=NNC1=O	melting point	81.5 to 100 °C
O=C1NN=C(Cc2ccc(Cl)c(Oc3cc(Br)cc(Br)c3)c2F)NC12CC2	melting point	90 to 95 °C
